test system: Staphylococcus aureus H3; experiment: MIC / antibiotic susceptibility; format: cell-based; further: key: R: strain resistant to antibiotic concerned; S: strain sensitive to antibiotic concerned; L strain with intermediate resistance to antibiotic concerned
Measurement kind: Susceptibility of strain to antibiotic

CO[C@H]1/C=C/O[C@@]2(C)Oc3c(C)c(O)c4c(O)c(c(/C=N/N5CCN(C)CC5)c(O)c4c3C2=O)NC(=O)/C(C)=C\C=C\[C@H](C)[C@H](O)[C@@H](C)[C@@H](O)[C@@H](C)[C@H](OC(C)=O)[C@@H]1C ... S
CC1COc2c(N3CCN(C)CC3)c(F)cc3c(=O)c(C(=O)O)cn1c23 (stereo not shown) ... R
CN(C)[C@@H]1C(O)=C(C(N)=O)C(=O)[C@@]2(O)C(O)=C3C(=O)c4c(O)cccc4[C@@](C)(O)[C@H]3C[C@@H]12 ... S
NC[C@H]1O[C@H](O[C@H]2[C@H](O)[C@@H](O[C@H]3O[C@H](CO)[C@@H](O)[C@H](N)[C@H]3O)[C@H](N)C[C@@H]2N)[C@H](N)C[C@@H]1O ... S
CCN1CCN(C(=O)N[C@@H](C(=O)N[C@@H]2C(=O)N3[C@@H]2SC(C)(C)[C@@H]3C(=O)O)c2ccccc2)C(=O)C1=O ... R
CN[C@H](CC(C)C)C(=O)N[C@H]1C(=O)N[C@@H](CC(N)=O)C(=O)N[C@H]2C(=O)N[C@H]3C(=O)N[C@H](C(=O)N[C@H](C(=O)O)c4cc(O)cc(O)c4-c4cc3ccc4O)[C@H](O)c3ccc(c(Cl)c3)Oc3cc2cc(c3O[C@@H]2O[C@H](CO)[C@@H](O)[C@H](O)[C@H]2O[C@H]2C[C@](C)(N)[C@H](O)[C@H](C)O2)Oc2ccc(cc2Cl)[C@H]1O ... S

// moving on: another record for Susceptibility of strain to antibiotic
Input line: Return Susceptibility of strain to antibiotic measured with Staphylococcus aureus H3 given this compound: C[C@@H]1O[C@@H]1P(=O)(O)O
Output line: S
